Molecular target: SIX1 homeodomain (reference allele) (human, UniProt Q15475 108-198)
Sequence: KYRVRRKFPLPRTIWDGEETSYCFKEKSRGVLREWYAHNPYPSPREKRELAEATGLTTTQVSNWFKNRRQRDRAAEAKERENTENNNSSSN
Test: universal protein binding microarray; Universal all-10-mer PBM (8x60K, AMADID 030236), 300 nM GST-tagged protein, Alexa Fluor 488 anti-GST; buffer, salt, pH and temperature not stated (as in Berger); high values mean tight binding
Conditions: protein: ivt; tags: N-terminal GST; dsDNA, one strand shown
Whole data set: some 33,000 sequences, median “e-score” near -0.053, cut for the highest 2% near 0.38. This is one part of a sample in which the highest values are shown more often than they occur.
Observation type: binding signal (E-score)
Kindly provide the numeric value in E-score only, without the unit symbol.

Input line: Name the reported binding signal value associated with the sequence ATCCGGTA
Output line: 0.318
